Test system: 817829-284-R-J1-PDC complex spheroids, viability;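 also: spheroids exposed to the agents for seven days before readout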
METHOD SUMMARY: Anticancer human tumor 817829-284-R-J1-PDC patient-derived colon adenocarcinoma cell line growth inhibition [CLK]; active = viability on the fitted dose curve at most 10% of control; inactive = the rest
TEST SETTINGS: second compound 1 µM; first compound 0.1 µM
Log the outcome using a class from active, inactive

Some solved cases for reference:
| COMPOUND | ASSIGNED LABEL |
| --- | --- |
| COC1C=CCC(C)C(C)S(=O)(=O)NC(=O)c2ccc3c(c2)N(CC2CCC21)CC1(CCCc2cc(Cl)ccc21)CO3 (stereo unspecified) + CNC(=O)c1ccc(Nc2nc(OC3CCCC3)c3c(-c4ccc5nc(C)oc5c4)c[nH]c3n2)c(OC)c1 | inactive |
| COc1cccc2c1C(=O)c1c(O)c3c(c(O)c1C2=O)CC(O)(C(=O)CO)CC3OC1CC(N)C(O)C(C)O1 (stereo unspecified) + CN1CCN(c2cc(C(=O)Nc3cc4cc(-c5cnn(C)c5)ccc4cn3)ccn2)CC1 | active |
| CC(Nc1ccc2c(c1)OCCn1cc(N3C(=O)OCC3C(F)F)nc1-2)C(N)=O (stereo unspecified) + CNC(=O)c1ccc(Nc2nc(OC3CCCC3)c3c(-c4ccc5nc(C)oc5c4)c[nH]c3n2)c(OC)c1 | inactive |

I'd appreciate the recorded outcome for CC(=O)O[C@H]1C(=O)[C@@]2(C)[C@H]([C@H](OC(=O)c3ccccc3)[C@]3(O)C[C@H](OC(=O)[C@H](O)[C@@H](NC(=O)c4ccccc4)c4ccccc4)C(C)=C1C3(C)C)[C@]1(OC(C)=O)CO[C@@H]1C[C@@H]2O + CNC(=O)c1ccc(Nc2nc(OC3CCCC3)c3c(-c4ccc5nc(C)oc5c4)c[nH]c3n2)c(OC)c1 from this test. inactive

// return assay outcome for CCc1c2c(nc3ccc(O)cc13)-c1cc3c(c(=O)n1C2)COC(=O)[C@]3(O)CC + CNC(=O)c1ccc(Nc2nc(OC3CCCC3)c3c(-c4ccc5nc(C)oc5c4)c[nH]c3n2)c(OC)c1 active

Could you please tell me the result logged for CC(CO)NC(=O)c1cc(-c2ccc(Cl)cc2)nn(-c2cnn(C)c2)c1=O (stereo unspecified) + CNC(=O)c1ccc(Nc2nc(OC3CCCC3)c3c(-c4ccc5nc(C)oc5c4)c[nH]c3n2)c(OC)c1 in this assay? inactive
